Assay: Plasma pharmacokinetics in mice after single intravenous cassette doses
Settings: male, Hsd:ICR (CD-1), mouse, plasma, intravenous, 3 mg/kg, Mean Conc. in plasma, mice, Cassette #4, single 15 mg/kg iv cassette dose (3 mg/kg/compound), 3 h
ASSAY_ENDPOINT: concentration at 3 h (ng/mL)
Answer with a number only, understood to be in ng/mL.

Respond only with concentration at 3 h recorded for NC1CCC(Nc2nc(NCCCc3ccccc3)c3ncn(C4CCCC4)c3n2)CC1 (stereo not shown) [MDL 107167, reference compound]
35.3

----------
Assay: Plasma pharmacokinetics in mice after single intravenous cassette doses
Conditions: male, Hsd:ICR (CD-1), mouse, plasma, intravenous, 3 mg/kg, Mean Conc. in plasma, mice, Cassette #3, single 15 mg/kg iv cassette dose (3 mg/kg/compound), 8 h
ASSAY_ENDPOINT: concentration at 8 h
Entry format: amount then unit.

Respond only with concentration at 8 h recorded for NC1CCC(Nc2nc(NCCCc3ccccc3)c3ncn(C4CCCC4)c3n2)CC1 (stereo not shown) [MDL 107167, reference compound]
2.4 ng/mL

----------
This listing pairs compounds with measured Mean Red Blood Cell to Plasma Ratio.
Experiment: Red blood cell binding (RBC to plasma ratio), human whole blood
Assay type: in vitro ADME
Conditions: 30 minutes at 37° C., nominal 500 ng/ml

| TEST_SMILES | MEASURED_VALUE |
| --- | --- |
| Cl.Cl.N[C@H]1CC[C@H](Nc2nc(NC3CCN(C(=O)Nc4ccc(C(F)(F)F)cc4)CC3)c3ncn(C4CCCC4)c3n2)CC1 | 2.8 |
| COc1ccc(OC(=O)N2CCC(Nc3nc(N[C@H]4CC[C@H](N)CC4)nc4c3ncn4C3CCCC3)CC2)cc1.Cl.Cl | 2.0 |
| Cc1ccc(OC(=O)N2CCC(Nc3nc(N[C@H]4CC[C@H](N)CC4)nc4c3ncn4C3CCCC3)CC2)cc1.Cl.Cl | 5.8 |
| Cl.Cl.N[C@H]1CC[C@H](Nc2nc(NC3CCN(C(=O)Oc4ccc(Cl)cc4)CC3)c3ncn(C4CCCC4)c3n2)CC1 | 2.6 |
| Cl.Cl.N[C@H]1CC[C@H](Nc2nc(NC3CCN(S(=O)(=O)c4ccc(F)cc4)CC3)c3ncn(C4CCCC4)c3n2)CC1 | 3.9 |

Respond only with Mean Red Blood Cell to Plasma Ratio recorded for Cl.Cl.N#Cc1ccc(S(=O)(=O)N2CCC(Nc3nc(N[C@H]4CC[C@H](N)CC4)nc4c3ncn4C3CCCC3)CC2)cc1
5.0

Respond only with Mean Red Blood Cell to Plasma Ratio recorded for Cl.Cl.N[C@H]1CC[C@H](Nc2nc(NC3CCN(C(=O)c4cccc(C(F)(F)F)c4F)CC3)c3ncn(C4CCCC4)c3n2)CC1
3.6

Respond only with Mean Red Blood Cell to Plasma Ratio recorded for Cl.Cl.N[C@H]1CC[C@H](Nc2nc(NC3CCN(C(=O)Oc4ccc(Br)cc4)CC3)c3ncn(C4CCCC4)c3n2)CC1
5.3

Respond only with Mean Red Blood Cell to Plasma Ratio recorded for COC(=O)c1ccccc1S(=O)(=O)N1CCC(Nc2nc(N[C@H]3CC[C@H](N)CC3)nc3c2ncn3C2CCCC2)CC1.Cl.Cl
1.2

Respond only with Mean Red Blood Cell to Plasma Ratio recorded for COC(=O)c1ccc(OC(=O)N2CCC(Nc3nc(N[C@H]4CC[C@H](N)CC4)nc4c3ncn4C3CCCC3)CC2)cc1.Cl.Cl
4.1
